Source of measurements: BindingDB's records for doi:10.1016/j.bmcl.2017.01.084

- assay-comment: Agonist activity at VDR in human HL60 cells assessed as induction of cell differentiation by measuring increase in NBT positive cells by Wright staining based microscopic method
metric: EC50 (nM)
Field: numeric (nM). Do not append units.

# smiles-structure, EC50 [nM]
rows = [
    ("CCn1cc(C(CC)(CC)c2ccc(C#CC(O)(CC)CC)c(C)c2)cc1C(=O)NCCN(C)C", 19),
]

input: For the compound CCn1cc(C(CC)(CC)c2ccc(C#CC(O)(CC)CC)c(C)c2)cc1C(=O)N[C@@H](C(=O)O)C(C)C , report EC50.
output: 68

input: For the compound CCn1c(C(=O)NCCCO)ccc1C(CC)(CC)c1ccc(C#CC(O)(CC)CC)c(C)c1 , report EC50.
output: 137

input: For the compound CCn1cc(C(CC)(CC)c2ccc(C#CC(O)(CC)CC)c(C)c2)cc1C(=O)N[C@@H](C)CO , report EC50.
output: 7.3

input: For the compound CCn1cc(C(CC)(CC)c2ccc(C#CC(O)(CC)CC)c(C)c2)cc1C(=O)NCC(=O)O , report EC50.
output: 54
